# targetDesc: human PCSK9 (proprotein convertase subtilisin kexin type 9) (human, UniProt Q8NBP7 31-692)
# Sequence (Q8NBP7 31-692 limits assumed): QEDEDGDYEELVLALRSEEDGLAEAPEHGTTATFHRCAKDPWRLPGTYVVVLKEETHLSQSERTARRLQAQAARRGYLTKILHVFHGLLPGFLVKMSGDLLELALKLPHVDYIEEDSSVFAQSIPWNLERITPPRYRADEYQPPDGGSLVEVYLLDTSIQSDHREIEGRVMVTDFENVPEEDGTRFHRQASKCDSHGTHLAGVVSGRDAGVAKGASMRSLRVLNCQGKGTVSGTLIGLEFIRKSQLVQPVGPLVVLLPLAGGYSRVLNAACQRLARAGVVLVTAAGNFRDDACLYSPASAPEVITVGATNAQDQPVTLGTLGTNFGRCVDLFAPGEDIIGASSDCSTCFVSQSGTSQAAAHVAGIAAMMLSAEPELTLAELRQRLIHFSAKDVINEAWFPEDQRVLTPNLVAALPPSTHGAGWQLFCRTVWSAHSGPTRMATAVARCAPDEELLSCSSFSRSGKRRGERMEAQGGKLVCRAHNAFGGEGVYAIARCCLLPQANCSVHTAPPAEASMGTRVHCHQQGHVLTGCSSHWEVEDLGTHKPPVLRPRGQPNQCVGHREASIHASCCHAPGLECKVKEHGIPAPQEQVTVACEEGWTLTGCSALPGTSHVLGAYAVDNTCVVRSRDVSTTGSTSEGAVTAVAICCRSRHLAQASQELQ
# assayInfo: cell-based or functional assay
Assignment: determine reported LDLR Depletion (% inhibition at 75 nM) for the given binders.
One number for each entry, in %.

binder	u	LDLR Depletion (% inhibition at 75 nM)
2451A10 (designed binder) MGVTDVPRDMEVVAATPTSLLISWQPPAVTYGYYRITYGETGGNSTLQQFTVPVYKGTATISGLKPGVDYTITVYAVEYPYDHSGYYHRPISINYRTEIDKPSQHHHHHH	%	53.7

Lab note: next binder to report on.
Please supply the value of reported LDLR Depletion (% inhibition at 75 nM) for the item 2382B11 (designed binder) MGVSDVPRDLEVVAATPTSLLISWDAPAAAYGYYRITYGETGGNSPVQEFTVPVSKGTATISGLKPGVDYTITVYAVEYDFAGSGYYHRPISINYRTEIDKPSQHHHHHH
88.8

Source: patent US20120094909A1
